- Test system: SK-N-MM (SKNMM-MYCN, doxycycline-inducible MYCN)
- protocol_text: area under dose-response curve (CellTiter-Glo viability normalised to plate controls) (AUC (arbitrary units)); higher = more loss of viability; extreme values may be limits of the assay
- measurement_conditions: MYCN induction (doxycycline): +doxycycline (MYCN induced); time after drugging: 3 days
measured_property: area under dose-response curve
Answers are plain numbers.

Reference set (3 entries):
# compound, area under dose-response curve
records = [
    ("COc1c(C)c2c(c(O)c1C/C=C(\\C)CCC(=O)OCCN1CCOCC1)C(=O)OC2 [MYCOPHENOLATE MOFETIL]", 43.8),
    ("O=C(NC1CCNCC1)c1n[nH]cc1NC(=O)c1c(Cl)cccc1Cl [AT-7519]", 48.9),
    ("C[C@H]1[C@H](OC(=O)CCC(=O)O)O[C@@H]2O[C@@]3(C)CC[C@H]4[C@H](C)CC[C@@H]1[C@@]24OO3 [ARTESUNATE]", 46.2),
]

The following compounds each have a reported value; give each one's area under dose-response curve.
1. NC(=O)Nc1cc(-c2cccc(F)c2)sc1C(=O)N[C@H]1CCCNC1 [AZD-7762]
2. CO[C@@]12[C@H](COC(N)=O)C3=C(C(=O)C(C)=C(N)C3=O)N1C[C@@H]1N[C@@H]12 [MITOMYCIN C]

139
11.1

The following compounds each have a reported value; give each one's area under dose-response curve.
1. Cc1oncc1C(=O)Nc1ccc(C(F)(F)F)cc1 [LEFLUNOMIDE]
2. CC(=O)c1c(C)c2cnc(Nc3ccc(N4CCNCC4)cn3)nc2n(C2CCCC2)c1=O [PALBOCICLIB]

[0, 0]

Memo: C[C@@H](Oc1cc(-c2cnn(C3CCNCC3)c2)cnc1N)c1c(Cl)ccc(F)c1Cl [CRIZOTINIB] , reported area under dose-response curve: 145

###

- Tested on: SK-N-MM (SKNMM-MYCN, doxycycline-inducible MYCN)
- protocol_text: area under dose-response curve (CellTiter-Glo viability normalised to plate controls) (AUC (arbitrary units)); higher = more loss of viability; extreme values may be limits of the assay
- measurement_conditions: MYCN induction (doxycycline): +doxycycline (MYCN induced); time after drugging: 3 days
Would you kindly list area under dose-response curve for each of these compounds?
One number for each entry.

Reference set (4 entries):
# compound, area under dose-response curve
measured = [
    ("COc1cc(CCc2cc(NC(=O)c3ccc(N4CC(C)NC(C)C4)cc3)n[nH]2)cc(OC)c1 (stereo not given)", 2.86),
    ("CC(C)C[C@H](NC(=O)[C@H](CCc1ccccc1)NC(=O)CN1CCOCC1)C(=O)N[C@@H](Cc1ccccc1)C(=O)N[C@@H](CC(C)C)C(=O)[C@@]1(C)CO1", 295),
    ("C[C@@H]1O[C@@H](O[C@H]2C[C@@H](O)[C@]3(CO)[C@H]4[C@H](O)C[C@]5(C)[C@@H](C6=CC(=O)OC6)CC[C@]5(O)[C@@H]4CC[C@]3(O)C2)[C@H](O)[C@H](O)[C@H]1O", 178),
    ("C=C1[C@@H](O)[C@@H]2O[C@]3(CC[C@H](/C=C/[C@@H](C)[C@@H]4CC(C)=C[C@@]5(O[C@H](C[C@@](C)(O)C(=O)O)CC[C@H]5O)O4)O3)CC[C@H]2O[C@@H]1[C@@H](O)C[C@H](C)[C@H]1O[C@@]2(CCCCO2)CC[C@H]1C", 204),
]

# evaluate next
Memo: COC(=O)[C@]12CCC(C)(C)C[C@H]1[C@H]1C(=O)C=C3[C@@]4(C)C=C(C#N)C(=O)C(C)(C)[C@@H]4CC[C@@]3(C)[C@]1(C)CC2 , reported area under dose-response curve: 212

###

- Tested on: SK-N-MM (SKNMM-MYCN, doxycycline-inducible MYCN)
- protocol_text: area under dose-response curve (CellTiter-Glo viability normalised to plate controls) (AUC (arbitrary units)); higher = more loss of viability; extreme values may be limits of the assay
- measurement_conditions: MYCN induction (doxycycline): +doxycycline (MYCN induced); time after drugging: 3 days
Categorized via area under dose-response curve: low = under 20, mid = from 20 up to 70, high = 70 and over

Please review the entries below; each comes with its answer.
# compound, class_label
records = [
    ("CC1(C)CCC(c2ccc(Cl)cc2)=C(CN2CCN(c3ccc(C(=O)NS(=O)(=O)c4ccc(N[C@H](CCN5CCOCC5)CSc5ccccc5)c(S(=O)(=O)C(F)(F)F)c4)cc3)CC2)C1", "low"),
    ("Cc1cc(Nc2ncc(Cl)c(Nc3ccccc3S(=O)(=O)C(C)C)n2)c(OC(C)C)cc1C1CCNCC1", "high"),
]

Returns: class label. Input: Nc1ccn([C@@H]2O[C@H](CO)[C@@H](O)C2(F)F)c(=O)n1
high

Returns: class label. Input: Nc1nccc2c1ncn2[C@@H]1C=C(CO)[C@@H](O)[C@H]1O
low

Returns: class label. Input: CN(C)C(=O)c1cc2cnc(Nc3ccc(N4CCNCC4)cn3)nc2n1C1CCCC1
low

Returns: class label. Input: Nc1ncn([C@@H]2O[C@H](CO)[C@@H](O)[C@H]2O)c(=O)n1
mid

Returns: class label. Input: N#CC[C@H](C1CCCC1)n1cc(-c2ncnc3[nH]ccc23)cn1
mid

Returns: class label. Input: Cc1cccc(-c2nn3c(c2-c2ccnc4ccc(C(N)=O)cc24)CCC3)n1
low

###

- Tested on: SK-N-MM (SKNMM-MYCN, doxycycline-inducible MYCN)
- protocol_text: area under dose-response curve (CellTiter-Glo viability normalised to plate controls) (AUC (arbitrary units)); higher = more loss of viability; extreme values may be limits of the assay
- measurement_conditions: MYCN induction (doxycycline): no doxycycline (MYCN not induced); time after drugging: 8 days
Would you kindly list area under dose-response curve for each of these compounds?
Numbers only.

Reference set (6 entries):
# compound, area under dose-response curve
records = [
    ("CC(C)(C)c1nc(-c2cccc(NS(=O)(=O)c3c(F)cccc3F)c2F)c(-c2ccnc(N)n2)s1", 10.8),
    ("Nc1nc(F)nc2c1ncn2[C@@H]1O[C@H](COP(=O)(O)O)[C@@H](O)[C@@H]1O [FLUDARABINE PHOSPHATE]", 57.1),
    ("C[C@H]1[C@@H](O)O[C@@H]2O[C@@]3(C)CC[C@H]4[C@H](C)CC[C@@H]1[C@@]24OO3 [DIHYDROARTEMISININ]", 73.1),
    ("COc1ccc(-c2cc(=O)c3c(O)cc(O)c(-c4cc(-c5cc(=O)c6c(O)cc(O)cc6o5)ccc4OC)c3o2)cc1", 24.2),
    ("COc1c(C)c2c(c(O)c1C/C=C(\\C)CCC(=O)OCCN1CCOCC1)C(=O)OC2 [MYCOPHENOLATE MOFETIL]", 51.4),
    ("Nc1ncn([C@@H]2O[C@H](CO)[C@@H](O)[C@H]2O)c(=O)n1", 23.6),
]

# evaluate next
Memo: CC[C@H](Nc1nc(NCc2cnc(C)cc2C)c2ncn(C(C)C)c2n1)[C@@H](C)O , reported area under dose-response curve: 160

###

- Tested on: SK-N-MM (SKNMM-MYCN, doxycycline-inducible MYCN)
- protocol_text: area under dose-response curve (CellTiter-Glo viability normalised to plate controls) (AUC (arbitrary units)); higher = more loss of viability; extreme values may be limits of the assay
- measurement_conditions: MYCN induction (doxycycline): no doxycycline (MYCN not induced); time after drugging: 8 days
Would you kindly list area under dose-response curve for each of these molecules?

Reference set (4 entries):
# molecule, result
rows = [
    ("Oc1ccc(C2=Cc3ccc(O)cc3OC2)cc1", 46.3),
    ("N#CCNC(=O)c1ccc(-c2ccnc(Nc3ccc(N4CCOCC4)cc3)n2)cc1", 42),
    ("Clc1ccc(NN=C(c2ccccc2)c2ccccn2)nc1", 37.1),
    ("Nc1ncn([C@H]2C[C@H](O)[C@@H](CO)O2)c(=O)n1", 67.4),
]

Memo: COc1cc(CCc2cc(NC(=O)c3ccc(N4CC(C)NC(C)C4)cc3)n[nH]2)cc(OC)c1 (stereo not given) , reported area under dose-response curve: 3.59

###

Would you kindly list area under dose-response curve for each of these compounds?
- Tested on: SK-N-MM (SKNMM-MYCN, doxycycline-inducible MYCN)
- protocol_text: area under dose-response curve (CellTiter-Glo viability normalised to plate controls) (AUC (arbitrary units)); higher = more loss of viability; extreme values may be limits of the assay
- measurement_conditions: MYCN induction (doxycycline): no doxycycline (MYCN not induced); time after drugging: 8 days
Answers are plain numbers.

# compound, number
records = [
    ("Cc1oncc1C(=O)Nc1ccc(C(F)(F)F)cc1 [LEFLUNOMIDE]", 16.7),
    ("CO[C@H]1C[C@@H]2CC[C@@H](C)[C@@](O)(O2)C(=O)C(=O)N2CCCC[C@H]2C(=O)O[C@H]([C@H](C)C[C@@H]2CC[C@@H](O)[C@H](OC)C2)CC(=O)[C@H](C)/C=C(\\C)[C@@H](O)[C@@H](OC)C(=O)[C@H](C)C[C@H](C)/C=C/C=C/C=C/1C", 24.7),
]

# evaluate next
Query Cc1cc(C2CCCCC2)n(O)c(=O)c1 on SK-N-MM (SKNMM-MYCN, doxycycline-inducible MYCN); area under dose-response curve returned: 41.6

Just for reference, the supplement of paper PMC7021759 is where these values come from.
